Test system: UACC-257
Experiment: NCI tumour cell line growth inhibition, 48 h
Activity calls are given as the source filed them. Rule as the data show it: active = GI50 up to about 1.1 µM and inactive = higher.
Possible outcomes: active, inactive

1. O=P(O)(O)CN1CCNCCN(CP(=O)(O)O)CC1 : inactive
2. NNC(=O)C(=O)N/N=C1/CCCC1C(=O)CCC(=O)Nc1ccc(Cl)cc1 (centres undefined) : inactive
3. COc1cc2c(cc1OC)C(=O)N(c1ccc(OCCN3CCCC3)cc1)C2=O : inactive
4. N#CC(C#N)=C1NC(=O)CC(=O)N1 : inactive
5. COc1ccc(/C=C\c2cc(OC)c(OC)c(OC)c2)cc1OC : active
6. Clc1ccc(-c2nnc(-c3nn(-c4ccccc4)c4nc5ccccc5nc34)o2)cc1 : inactive
7. Cc1ccc(NC(=O)c2cccc([N+](=O)[O-])c2O)c(C)c1 : inactive
8. NCC1CCCCC1.O=C(O)NCC1CCCCC1 : inactive
9. N#CCCOCN(CO)c1nc(N(CO)COCCC#N)nc(N(CO)COCCC#N)n1 : inactive
10. CN(C)C(=O)C(F)(F)C(c1ccc(F)cc1)C1C(=O)N(C)C(=O)N(C)C1=O (centres undefined) : inactive
11. CCCCCNC(=O)c1cc2cc(CCl)ccc2oc1=O : inactive
12. Cc1cc(NS(=O)(=O)c2ccc(NC(=O)c3cccc4c(Nc5ccc(S(N)(=O)=O)cc5)c5ccccc5nc34)cc2)no1 : inactive
13. O=C(/C=C(\C(=O)c1cccs1)c1cccs1)c1ccc(C(=O)/C=C(\C(=O)c2cccs2)c2cccs2)cc1 : inactive
14. CCCCn1c2c(n(CCCC)c1=S)-c1c(n(CCCC)c(=S)n1CCCC)SSc1c(n(CCCC)c(=S)n1CCCC)-c1c(n(CCCC)c(=S)n1CCCC)SSc1c(n(CCCC)c(=S)n1CCCC)-c1c(n(CCCC)c(=S)n1CCCC)SS2 : inactive
15. Cc1ccnc2nc(-c3cccc(Cl)c3)cc(O)c12 : inactive
16. NC1CC(=O)c2cc(Cl)sc21 (centres undefined) : inactive
17. C=C1C(=O)OC2C(C)C3C=CC(=O)[C@@]3(C)C(OC(=O)/C(C)=C/C)C1[C@@H]2OC(C)=O (some centres undefined) : active
18. COc1cc(C#CC(=O)OC/C=C/c2ccc3c(c2)OCO3)cc(OC)c1OC : inactive
19. OC(CCN1CCN(CCOC(c2ccc(F)cc2)c2ccc(F)cc2)CC1)c1ccccc1 (centres undefined) : inactive
20. CC(C)(C)OC(=O)NC(Cc1ccccc1)NC(=O)NC(=O)OCc1ccccc1 (centres undefined) : inactive
21. C=C(C)[C@@H](C(=O)OC)N1C(=O)c2ccccc2C1=O : inactive
22. CS(=O)(=O)C1(Br)S(=O)(=O)OCCOS1(=O)=O : inactive
23. CCOC(=O)C(C(=O)OCC)C1C=CCC2c3ccccc3COCC21 (centres undefined) : inactive
24. CN[C@@H](C)[C@H](OP(=O)(O)OC1[C@@H](O)[C@H](O)C(O)[C@H](O)[C@@H]1O)c1ccccc1 (some centres undefined) : inactive
25. CC1=C(C2=C(C)C(=O)C(=O)c3cc(C)ccc32)c2ccc(C)cc2C(=O)C1=O : active
26. Cc1cc(O)nc(CNC(=O)c2cccc(C(=O)NCc3cc(O)nc(C)n3)c2)n1 : inactive
27. Nc1nc(N)c(C2=CCN(Cc3ccccc3)CC2)c(=O)[nH]1 : inactive
28. CC(C)=CC1C(C(=O)Oc2ccccc2C(C)C)C1(C)C (centres undefined) : inactive
29. OCc1c2c(cc3c1CC1(C3)Cc3cc4c(c(CO)c3C1)CCC4)CCC2 : inactive
30. CC1=C(C(=O)Nc2ccccc2)C(c2ccc(N(C)C)cc2)C(C(=O)Nc2ccccc2)=C(C)N1 : inactive
31. CC(C)(/N=N/C(C)(C)C(=N)N)C(=N)N : inactive
32. CC(NCc1c(O)ccc2ccc(=O)oc12)C(=O)O (centres undefined) : inactive
33. O=[N+]([O-])C1C2C=CC(C2)[C@H]1c1ccco1 (some centres undefined) : inactive
34. COc1cc2cc[n+](C)c(Cc3ccc(Oc4cc(Cc5c6cc(OC)c(OC)cc6cc[n+]5C)ccc4OC)cc3)c2cc1OC : inactive
